target: KCNQ2/3 channels (Homo sapiens, UniProt O43525+O43526); assay: Fluorescence assay using a voltage sensitive dye (fluorimetry); conditions: CHO-K1 cells expressing KCNQ2/3 channels
The reader will find reported EC50 values listed item by item below.
A complete answer gives the number followed by the unit.

Study these solved cases before continuing.
[
  {
    "MOLECULE": "CCc1nc2cc(C(F)(F)F)ccc2c(C)c1C(=O)NCc1ccc(F)cc1 [Example 5]",
    "EC50": "266 nM"
  },
  {
    "MOLECULE": "CCCc1nc2cc(C(F)(F)F)ccc2c(C)c1C(=O)NCCCC(C)(C)C [Example 22]",
    "EC50": "185 nM"
  },
  {
    "MOLECULE": "Cc1c(C(=O)NCc2cccc(F)c2)c(CC(C)C)nc2cc(C(F)(F)F)ccc12 [Example 36]",
    "EC50": "82 nM"
  }
]

Need EC50 of COCc1nc2cc(C(F)(F)F)ccc2c(C)c1C(=O)NCc1ccc(F)cc1 [Example 16] , thanks.
393 nM

Looking for the measured EC50 of Cc1c(C(=O)NCc2ccc(F)cc2)c(C2CC2)nc2cc(C#N)ccc12 [Example 38] , can you help?
118 nM

GET /values?readout=EC50&item= CCc1nc2cc(C#N)ccc2c(C)c1C(=O)NCc1cccc(F)c1 [Example 33]
1020 nM

Please report the recorded EC50 for CCc1nc2cc(C(F)(F)F)ccc2c(C)c1C(=O)NCc1cccc(F)c1 [Example 6] .
178 nM

# input molecule: Cc1c(C(=O)NCc2ccc(F)cc2)c(C2CC2)nc2cc(C(F)(F)F)ccc12 [Example 9] ; wanted: its EC50
126 nM

Tell me the measured EC50 of CCc1nc2cc(C(F)(F)F)ccc2c(C)c1C(=O)NCc1ccc(C)c(F)c1 [Example 34] , please.
312 nM
